- measurement_conditions: acidic group
Assignment: determine reported pKa for the given molecules.
Write the number on its own, no unit after it.

So for `C[Si](C)(C)CCC(=O)O` , the logged pKa turned out to be 4.91

So for `CC/C(C)=C/C(=O)O` , the logged pKa turned out to be 5.14

So for `Cn1cc(O)[nH+]c1N` , the logged pKa turned out to be 4.9

* * *

- measurement_conditions: acidic group
Classification field: YES = pKa at or over 5; NO = pKa under 5.

Query block: Please tell me: is the compound `O=S1(=O)N=C[N-]c2nc[nH]c21` at or over 5 in terms of pKa?
Result block: YES

Query block: Please tell me: is the compound `O=C(O)[C@@H](O)Cc1c[nH]c[nH+]1` at or over 5 in terms of pKa?
Result block: NO

Query block: Please tell me: is the compound `N#CC(C#N)=C(c1ccccc1)C(C#N)C#N` at or over 5 in terms of pKa?
Result block: NO

Query block: Please tell me: is the compound `O=C(O)[C@@H]1CC[C@@H](C(=O)O)[Se]1` at or over 5 in terms of pKa?
Result block: NO

Query block: Please tell me: is the compound `O=C([O-])Cc1nnn[nH]1` at or over 5 in terms of pKa?
Result block: YES

Query block: Please tell me: is the compound `Nc1n[nH]c(N)c1/N=N/c1ccc(C(=O)O)cc1` at or over 5 in terms of pKa?
Result block: NO

Query block: Please tell me: is the compound `N#CC(C#N)=C(C#N)NC1CCCCC1` at or over 5 in terms of pKa?
Result block: YES

Query block: Please tell me: is the compound N#CC(C(=O)O)C1CCCCC1 (stereo not drawn) at or over 5 in terms of pKa?
Result block: NO

Query block: Please tell me: is the compound `Oc1ccc2cn[nH]c2c1` at or over 5 in terms of pKa?
Result block: YES

Query block: Please tell me: is the compound `Cc1cc(O)nn1-c1ccccc1C(=O)N1CCCCC1` at or over 5 in terms of pKa?
Result block: YES

Query block: Please tell me: is the compound `NC(=S)c1ccc([N+](=O)[O-])cc1` at or over 5 in terms of pKa?
Result block: YES

Query block: Please tell me: is the compound `[NH3+]CCC(=O)N[C@@H](Cc1c[nH]c[nH+]1)C(=O)O` at or over 5 in terms of pKa?
Result block: NO

Where these numbers come from: the pKa sets of Baltruschat and Czodrowski (2020)
